# Test system: NCI-H226 lung
# method.notes: NCI-60 one-dose screen, 48 h (100 = growth as untreated, 0 = no growth, -100 = all killed)
# cond: 10 µM unless noted
The panel holds about 83,000 compounds, 20% with a hit somewhere; the sample as a whole holds those more often.
Assign growth to each entry below.
Answers are plain numbers, in %.

compound	units.label	growth
NS(=O)(=O)c1ccc(Nc2nc(SCC(=O)c3ccc(F)cc3)nc3ccccc23)cc1	%	50.1

For every item in the list below, what is its measured growth?
1. O=C1/C(=C/c2cccc3c2OCO3)Cc2c(F)cc(Br)cc21
2. CC(C)(C)OC(=O)N1CCC2(CC1)Oc1ccccc1[C@H]1CC(c3ccc(Br)cc3)=NN12
3. COc1ccc(-c2cc(-c3ccccc3)c(C#N)c(=O)[nH]2)cc1S(N)(=O)=O
4. Clc1ccc(-c2nc3c4c(-c5ccccc5)c(-c5ccccc5)n(Cc5ccccc5)c4ncn3n2)cc1

**A:**
106
79
103
-3.39

For every item in the list below, what is its measured growth?
1. Cc1ccc(-c2cc(-c3ccccc3)[nH]c(=O)c2C#N)cc1
2. Cc1ccc(C2CC(c3ccc(NC(=S)Nc4ccccc4)cc3)=NN2c2ccc(S(N)(=O)=O)cc2)cc1 (configuration not stated)
3. Cn1cc(-c2cc(N)n3nc(-c4c[nH]c5ccc(F)cc45)cc3n2)c2cccnc21

**A:**
86.8
-7.72
-67.5

For every item in the list below, what is its measured growth?
1. CCCCNc1ccc2c3c(cccc13)C(=O)N(c1cccc(-c3nn(-c4ccccc4)cc3-c3nc4ccccc4s3)c1)C2=O
2. CCc1ccccc1NC(=O)N/C(N)=N/c1nc2ccccc2s1

**A:**
83.5
22.5

###

Assign growth to each entry below.
# System: COLO 205 colon
# method.notes: NCI-60 one-dose screen, 48 h (100 = growth as untreated, 0 = no growth, -100 = all killed)
# cond: 10 µM unless noted
This is part of a sample that, as a whole, favours compounds with a hit. Of some 83,000 tested, about 20% had one in any assay.
Answers are plain numbers, in %.

compound	reported.result
c1n[nH]cc1-c1nc2ccc3[nH]ncc3c2c2c1CC1(CC2)COC1	24.6
O=C(NN1C(=O)/C(=C/C=C/c2ccc([N+](=O)[O-])o2)SC1=S)c1ccc([N+](=O)[O-])cc1	-94.1
COc1ccc(N=Nc2c(N)nn3c(N)c(C#N)c(-c4ccccc4)nc23)cc1	80.8

For every item in the list below, what is its measured growth?
1. COc1ccc(S(=O)(=O)Nc2ccc(-c3ccc4c(c3)NC(=O)/C4=C\c3ccc[nH]3)cc2)cc1OC
2. COc1c(F)ccc(C(=O)Nc2ccc3nc(NC(=O)C4CCCN(S(=O)(=O)c5ccc(C(C)(C)C)cc5)C4)sc3c2)c1F (configuration not stated)

**A:**
1. 39.8
2. 80.9

###

# Test system: HCT-15 colon
# method.notes: NCI-60 one-dose screen, 48 h
# cond: 10 µM unless noted
Compounds without any hit were thinned out: in the full panel of roughly 83,000, 20% have a hit. Calls of active or inactive are those of the source. The calls were made as follows: active = growth percent below 10; inactive = the rest.
Valid outcomes are listed here; reply with one: 1 (active), -1 (inactive)

**Q:** Please let me know the test result on file for O=C(c1ccc(Cl)cc1)C1[C@H](c2ccccc2Cl)[C@@H](c2ccccc2)NC12C(=O)Nc1ccccc12 (some centres not stated) .
**A:** 1

**Q:** Please let me know the test result on file for COc1cc2cc(C(=O)N3C[C@@H](CCl)c4c3cc(OC(=O)N(CCC(=O)N3CCN(C)CC3)[C@H]3CCSSC3)c3ccccc43)[nH]c2c(OC)c1OC .
**A:** 1

**Q:** Please let me know the test result on file for CN(C)c1ccc(/C=C/c2n(Cc3ccc4ccccc4c3)c3ccccc3[n+]2Cc2ccc3ccccc3c2)cc1 .
**A:** 1

**Q:** Please let me know the test result on file for CCCCCCCCc1cccc(CC(=O)Nc2ccc(C)cc2C(=O)O)c1 .
**A:** -1

**Q:** Please let me know the test result on file for O=C(Nc1ccc(-c2ccc3c(c2)NC(=O)/C3=C\c2ccc[nH]2)cc1)Nc1ccc(Cl)c(C(F)(F)F)c1 .
**A:** -1

**Q:** Please let me know the test result on file for CC[C@@]12CC(C(=O)OC)=C3Nc4cc5c(cc4[C@@]34CCN(C[C@H]3O[C@H]31)[C@@H]24)[C@@H]1[C@H](O5)[C@@H](O)[C@@]2(CC)CC(C(=O)OC)=C3Nc4cc(O)ccc4[C@@]34CCN1[C@@H]24 .
**A:** 1

**Q:** Please let me know the test result on file for Oc1ccc(F)c(Nc2nc(SCCN3CCOCC3)nc3c2cnn3CC(Cl)c2ccc(Br)cc2)c1 (configuration not stated) .
**A:** 1

**Q:** Please let me know the test result on file for Cc1ccc2nc(COc3ccc(C(=O)NNC(=O)Nc4ccc(Cl)c(C(F)(F)F)c4)cc3)[nH]c2c1 .
**A:** -1

**Q:** Please let me know the test result on file for Cc1cnc2ccc(Oc3ccccc3-c3ccccc3)nn12 .
**A:** -1

**Q:** Please let me know the test result on file for O=C(N/N=C/c1ccc(B(O)O)s1)c1[nH]c2ccc(Br)cc2c1-c1ccccc1 .
**A:** 1

**Q:** Please let me know the test result on file for Cc1cccc(C)c1Nc1nnc(-c2c[nH]c3ccccc23)o1 .
**A:** -1

**Q:** Please let me know the test result on file for O=C(CSc1nc2sc3c(c2c(=O)n1-c1ccc(Cl)cc1)CCCC3)N/N=C/C=C/c1ccccc1 .
**A:** 1

**Q:** Please let me know the test result on file for Cc1nc(Nc2ccccn2)sc1C1=NNC(c2ccccc2F)C1 (configuration not stated) .
**A:** -1

**Q:** Please let me know the test result on file for Cc1cc(=O)oc2cc(OCC(O)CNN3C(=O)c4cccc5c(N6CCN(C)CC6)ccc(c45)C3=O)ccc12 (configuration not stated) .
**A:** -1

**Q:** Please let me know the test result on file for O=C1/C(=C/C=C/c2ccco2)SC(=S)N1CC(=S)C1C=CS(=O)(=O)C1 (configuration not stated) .
**A:** -1

**Q:** Please let me know the test result on file for C[C@@H]1CN(c2ccc3ncc(C#Cc4cncc(C(=O)Nc5ccc(CN6CCN(C)CC6)c(C(F)(F)F)c5)c4)n3n2)C[C@@H](C)O1 .
**A:** 1

**Q:** Please let me know the test result on file for Clc1ccc(Nc2nnc(-c3c[nH]c4ccccc34)o2)cc1 .
**A:** -1

**Q:** Please let me know the test result on file for CC(C)(C)OC(=O)N1CCC2(CC1)Oc1ccccc1[C@H]1CC(c3ccc(Br)cc3)=NN12 .
**A:** -1

###

# System: MCF7 breast
# method.notes: NCI-60 one-dose screen, 48 h
# cond: 10 µM unless noted
About 83,000 compounds went through this panel and 20% of them were active in at least one assay; those are over-represented in the sample as a whole. Calls of active or inactive are those of the source. The calls were made as follows: active = growth percent below 10; inactive = the rest.
Valid outcomes are listed here; reply with one: yes (1) (active), no (0) (inactive)

**Q:** Please let me know the test result on file for Fc1ccc(F)c(CNc2nc(SCCN3CCOCC3)nc3c2cnn3CC(Cl)c2ccc(Br)cc2)c1 (centres undefined) .
**A:** yes (1)

**Q:** Please let me know the test result on file for CN1CCN(CCS(=O)(=O)Nc2cc(-c3ccc4ncnc(Nc5ccc(F)c(Cl)c5)c4c3)cnc2Cl)CC1 .
**A:** no (0)

###

# Tested on: MDA-MB-231 breast
# method.notes: NCI-60 one-dose screen, 48 h
# cond: 10 µM unless noted
The panel holds about 83,000 compounds, 20% with a hit somewhere; the sample as a whole holds those more often. The source made the active and inactive calls. How the source made its calls: active means growth percent below 10; inactive means the rest.
Valid outcomes are listed here; reply with one: active, inactive

Some solved entries appear below for comparison.
molecule	study.system	category.label
CCOC(=O)/C(F)=C/C1CC1CCc1ccc(OCC)cc1 (stereo not drawn)	MDA-MB-231 breast	inactive
CCCCCCCCc1ccc(C(=O)Nc2cccc(O)c2)cc1	MDA-MB-231 breast	inactive

From here, focus on the item given below.
**Q:** Please let me know the test result on file for O=C(Nc1ccc(Cl)c(C(F)(F)F)c1)N1CCN(c2cc(-c3cn(-c4ccccc4)nc3-c3cccc(O)c3)ccn2)CC1 .
**A:** active

###

# System: SK-MEL-5 melanoma
# method.notes: NCI-60 one-dose screen, 48 h
# cond: 10 µM unless noted
Compounds without any hit were thinned out: in the full panel of roughly 83,000, 20% have a hit. Active and inactive are the calls of the source. How the source made its calls: active means growth percent below 10; inactive means the rest.
Valid outcomes are listed here; reply with one: active, inactive

Some solved entries appear below for comparison.
molecule	category.label
CCC(=O)c1cc(C(=O)OC)c2ccc3c4ccccc4ccc3n12	inactive
CCOC(=O)c1ccc(NC(=S)NC(=O)c2cccc(NC(=O)c3ccc(C)cc3)c2)cc1	inactive
Nc1cc(-c2c[nH]c3ccc(F)cc23)nc2cc(-c3c[nH]c4ccccc34)nn12	active

**Q:** Please let me know the test result on file for Cc1ccc(-c2cc(-c3ccccc3)[nH]c(=O)c2C#N)cc1 .
**A:** inactive

**Q:** Please let me know the test result on file for CCCCCCCCc1ccc(C(=O)Nc2ccc(C)cc2C(=O)O)cc1 .
**A:** inactive

**Q:** Please let me know the test result on file for CCOC(=O)/C(F)=C/C1CC1CCc1ccc(OCC)cc1 (stereo unspecified) .
**A:** inactive

**Q:** Please let me know the test result on file for Nc1cc(-c2c[nH]c3ccc(Cl)cc23)nc2cc(-c3c[nH]c4ccccc34)nn12 .
**A:** active

**Q:** Please let me know the test result on file for CS(=O)(=O)c1ccc(-n2nc(C(=O)NCc3ccccc3)cc2-c2ccc(Cl)cc2)cc1 .
**A:** inactive
